Reference source for all entries: patent US10377753B2

Readings of pIC50 for the listed molecules
- SYSTEM TESTED: cloned human NR1/NR2B ion channels (Homo sapiens (Human), UniProt Q05586+Q13224)
- Sequence (Q13224 27-1484, other chains not shown): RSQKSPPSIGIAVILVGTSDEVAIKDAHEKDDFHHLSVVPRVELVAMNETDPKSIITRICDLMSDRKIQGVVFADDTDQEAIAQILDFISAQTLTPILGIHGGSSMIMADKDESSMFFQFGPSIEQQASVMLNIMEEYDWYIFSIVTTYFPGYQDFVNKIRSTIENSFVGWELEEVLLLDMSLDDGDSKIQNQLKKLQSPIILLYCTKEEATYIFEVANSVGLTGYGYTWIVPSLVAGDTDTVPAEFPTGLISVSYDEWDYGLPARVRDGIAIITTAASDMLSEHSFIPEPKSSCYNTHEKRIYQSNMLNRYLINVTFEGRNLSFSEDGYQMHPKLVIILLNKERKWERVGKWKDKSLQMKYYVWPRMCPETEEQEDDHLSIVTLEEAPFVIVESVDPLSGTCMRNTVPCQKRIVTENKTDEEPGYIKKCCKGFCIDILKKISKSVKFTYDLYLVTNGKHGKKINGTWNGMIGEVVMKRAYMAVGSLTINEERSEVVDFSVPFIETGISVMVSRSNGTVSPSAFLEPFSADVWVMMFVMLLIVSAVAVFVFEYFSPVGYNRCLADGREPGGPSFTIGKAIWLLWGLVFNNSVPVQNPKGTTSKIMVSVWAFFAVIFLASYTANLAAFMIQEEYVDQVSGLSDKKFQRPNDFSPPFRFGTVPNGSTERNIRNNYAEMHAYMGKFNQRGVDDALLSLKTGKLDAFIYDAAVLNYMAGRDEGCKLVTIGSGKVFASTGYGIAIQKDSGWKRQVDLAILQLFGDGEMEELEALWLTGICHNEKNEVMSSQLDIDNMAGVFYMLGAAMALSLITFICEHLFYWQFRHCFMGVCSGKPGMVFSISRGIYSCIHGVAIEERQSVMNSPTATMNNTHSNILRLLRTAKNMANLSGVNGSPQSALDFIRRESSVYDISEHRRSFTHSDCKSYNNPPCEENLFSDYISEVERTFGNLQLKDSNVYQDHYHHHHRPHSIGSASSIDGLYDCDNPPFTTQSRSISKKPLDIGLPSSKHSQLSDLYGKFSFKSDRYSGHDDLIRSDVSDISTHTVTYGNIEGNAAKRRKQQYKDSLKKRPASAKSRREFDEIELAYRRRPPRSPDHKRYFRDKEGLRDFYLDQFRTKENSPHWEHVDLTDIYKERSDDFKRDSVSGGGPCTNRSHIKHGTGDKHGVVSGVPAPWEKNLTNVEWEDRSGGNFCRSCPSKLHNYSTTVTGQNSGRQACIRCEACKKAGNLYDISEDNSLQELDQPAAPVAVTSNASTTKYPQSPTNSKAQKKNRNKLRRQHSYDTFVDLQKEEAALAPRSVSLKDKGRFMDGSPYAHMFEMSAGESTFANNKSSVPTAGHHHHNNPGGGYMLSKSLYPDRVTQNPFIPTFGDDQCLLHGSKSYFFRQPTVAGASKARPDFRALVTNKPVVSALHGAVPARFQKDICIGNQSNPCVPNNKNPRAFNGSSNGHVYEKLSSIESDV
- TEST DESCRIPTION: HNR2BC: effects of test articles on cloned human NR1/NR2B ion channels expressed in mammalian cells (FLIPR calcium flux)
- Type: cell-based
- REPORTED CONDITIONS: cloned human NR1/NR2B, Table 5
pIC50: −log10 of the molar value. Structures can show the parent of a compound that is named as a salt.
MEASURED PARAMETER: pIC50

>  <MOLECULE>
Cc1cccc(-c2cnc3cc(C)n(CC(=O)N4CCC4)c3c2)c1

>  <SYSTEM TESTED>
cloned human NR1/NR2B ion channels (Homo sapiens (Human), UniProt Q05586+Q13224)

>  <OBSERVED MEASUREMENT>
7.60

$$$$
>  <MOLECULE>
Cc1cc(-c2cnc3ccn(CC(=O)C4CCC4)c3c2)ccc1F

>  <SYSTEM TESTED>
cloned human NR1/NR2B ion channels (Homo sapiens (Human), UniProt Q05586+Q13224)

>  <OBSERVED MEASUREMENT>
6.10

$$$$
>  <MOLECULE>
CCC(=O)Cn1cc(F)c2ncc(-c3ccc(F)cc3)cc21

>  <SYSTEM TESTED>
cloned human NR1/NR2B ion channels (Homo sapiens (Human), UniProt Q05586+Q13224)

>  <OBSERVED MEASUREMENT>
5.20

$$$$
>  <MOLECULE>
Cc1c(F)ccc(-c2cnc3ccn(CC(=O)NC4CC4)c3c2)c1C [Example 159, trifluoroacetate salt]

>  <SYSTEM TESTED>
cloned human NR1/NR2B ion channels (Homo sapiens (Human), UniProt Q05586+Q13224)

>  <OBSERVED MEASUREMENT>
6.60

$$$$
>  <MOLECULE>
O=C(Cn1ccc2ncc(-c3ccc(F)c(F)c3F)cc21)N1CCOCC1

>  <SYSTEM TESTED>
cloned human NR1/NR2B ion channels (Homo sapiens (Human), UniProt Q05586+Q13224)

>  <OBSERVED MEASUREMENT>
7.00

$$$$
>  <MOLECULE>
CC(C)(C)C(=O)Cn1ccc2ncc(-c3ccc(F)c(F)c3)cc21

>  <SYSTEM TESTED>
cloned human NR1/NR2B ion channels (Homo sapiens (Human), UniProt Q05586+Q13224)

>  <OBSERVED MEASUREMENT>
7.50

$$$$
>  <MOLECULE>
Cc1cc(-c2cnc3ccn(CC(=O)N4CC(F)(F)C4)c3c2)ccc1F [Example 259, trifluoroacetate salt]

>  <SYSTEM TESTED>
cloned human NR1/NR2B ion channels (Homo sapiens (Human), UniProt Q05586+Q13224)

>  <OBSERVED MEASUREMENT>
7.50

$$$$
>  <MOLECULE>
O=C(Cn1ccc2ncc(-c3cccc(C(F)F)c3)cc21)NC1CC1

>  <SYSTEM TESTED>
cloned human NR1/NR2B ion channels (Homo sapiens (Human), UniProt Q05586+Q13224)

>  <OBSERVED MEASUREMENT>
6.60

$$$$
>  <MOLECULE>
Cc1cc(-c2cnc3c(F)cn(CC(=O)N(C)C)c3c2)ccc1F

>  <SYSTEM TESTED>
cloned human NR1/NR2B ion channels (Homo sapiens (Human), UniProt Q05586+Q13224)

>  <OBSERVED MEASUREMENT>
6.90

$$$$
>  <MOLECULE>
O=C(Cn1ccc2ncc(-c3cccc(C(F)(F)F)n3)cc21)N1CCC1

>  <SYSTEM TESTED>
cloned human NR1/NR2B ion channels (Homo sapiens (Human), UniProt Q05586+Q13224)

>  <OBSERVED MEASUREMENT>
7.50

$$$$
>  <MOLECULE>
O=C(Cn1cc(F)c2ncc(-c3ccc(F)c(F)c3)cc21)C1CC1

>  <SYSTEM TESTED>
cloned human NR1/NR2B ion channels (Homo sapiens (Human), UniProt Q05586+Q13224)

>  <OBSERVED MEASUREMENT>
7.20

$$$$
>  <MOLECULE>
CC1(NC(=O)Cn2ccc3ncc(-c4ccc(F)cc4)cc32)CC1

>  <SYSTEM TESTED>
cloned human NR1/NR2B ion channels (Homo sapiens (Human), UniProt Q05586+Q13224)

>  <OBSERVED MEASUREMENT>
5.00

$$$$
>  <MOLECULE>
O=C(Cn1cc(Br)c2ncc(-c3ccccc3)cc21)N1CCCC1

>  <SYSTEM TESTED>
cloned human NR1/NR2B ion channels (Homo sapiens (Human), UniProt Q05586+Q13224)

>  <OBSERVED MEASUREMENT>
7.40

$$$$
>  <MOLECULE>
Cc1cc(-c2cnc3ccn(CCn4cccn4)c3c2)ccc1F [Example 181, trifluoroacetate salt]

>  <SYSTEM TESTED>
cloned human NR1/NR2B ion channels (Homo sapiens (Human), UniProt Q05586+Q13224)

>  <OBSERVED MEASUREMENT>
6.10

$$$$
>  <MOLECULE>
O=C(Cn1ccc2ncc(-c3cncc(C(F)(F)F)c3)cc21)NC1CC1

>  <SYSTEM TESTED>
cloned human NR1/NR2B ion channels (Homo sapiens (Human), UniProt Q05586+Q13224)

>  <OBSERVED MEASUREMENT>
6.20

$$$$
>  <MOLECULE>
O=C(Cn1ccc2ncc(-c3cc(Cl)cs3)cc21)N1CCCC1

>  <SYSTEM TESTED>
cloned human NR1/NR2B ion channels (Homo sapiens (Human), UniProt Q05586+Q13224)

>  <OBSERVED MEASUREMENT>
7.70

$$$$
>  <MOLECULE>
O=C(Cn1cc(Cl)c2ncc(-c3cccc(C(F)(F)F)n3)cc21)N1CCC1

>  <SYSTEM TESTED>
cloned human NR1/NR2B ion channels (Homo sapiens (Human), UniProt Q05586+Q13224)

>  <OBSERVED MEASUREMENT>
6.40

$$$$
>  <MOLECULE>
CCC(=O)Cn1cc(F)c2ncc(-c3ccc(F)c(F)c3)cc21

>  <SYSTEM TESTED>
cloned human NR1/NR2B ion channels (Homo sapiens (Human), UniProt Q05586+Q13224)

>  <OBSERVED MEASUREMENT>
7.70

$$$$
>  <MOLECULE>
O=C(Cn1cc(Br)c2ncc(-c3ccccc3)cc21)N1CCOCC1

>  <SYSTEM TESTED>
cloned human NR1/NR2B ion channels (Homo sapiens (Human), UniProt Q05586+Q13224)

>  <OBSERVED MEASUREMENT>
7.10

$$$$
>  <MOLECULE>
CSCn1ccc2ncc(-c3ccc(F)c(C)c3)cc21

>  <SYSTEM TESTED>
cloned human NR1/NR2B ion channels (Homo sapiens (Human), UniProt Q05586+Q13224)

>  <OBSERVED MEASUREMENT>
7.20

$$$$
>  <MOLECULE>
Cc1cccc(-c2cnc3cc(C)n(CC(=O)NC4CC4)c3c2)c1

>  <SYSTEM TESTED>
cloned human NR1/NR2B ion channels (Homo sapiens (Human), UniProt Q05586+Q13224)

>  <OBSERVED MEASUREMENT>
7.20

$$$$
